# testedTarget: lyophilized human pancreated fluid obtained by cannulation of the pancreatic duct outlet (E2)
# assayName: Inhibition constants (Ki) with human pancreatic fluid elastase and chromogenic substrates
# Assay type: biochemical
# particulars: Table 2, substrate Suc-(Ala)4-NAn, read-out: Ki, Suc-(Ala)4-NAn, E2
pKi: −log10 of the molar value. Starred links: 1 amine or outer side, 2 acyl side, 3 side chain; linkers in the order of their positions; H or OH if unused. Residues, ends and D or L forms follow the SMILES beside them. Glutaryl = O=C(CCCC(=O)[*:2])[*:1]; Suc = O=C(CCC(=O)[*:2])[*:1]
testReadout: pKi

Below, each entry is followed by its recorded pKi result.
CCNC(=O)[C@@H]1CCCN1C(=O)[C@H](C)NC(=O)[C@H](C)NC(=O)CCCC(=O)O [Glt--Ala--Ala--Pro--NH--Et] (Glutaryl-Ala-Ala-Pro-NHEt)	5.54
CCNC(=O)[C@@H]1CCCN1C(=O)[C@H](C)NC(=O)[C@H](C)NC(=O)CCC(=O)O [Suc--Ala--Ala--Pro--NH--Et] (Suc-Ala-Ala-Pro-NHEt)	4.64

A. CCNC(=O)[C@H](C)NC(=O)[C@H](C)NC(=O)[C@H](C)NC(=O)C=CC(=O)O
B. CCCNC(=O)[C@H](C)NC(=O)[C@H](C)NC(=O)[C@H](C)NC(=O)CCCC(=O)O
(Q) Among A and B , which shows a numerically higher pKi result? // output: label of the selected item
(A) B
